- System: K4 kissing-loop RNA reporter
- run-description: apparent KD of K4 kissing-loop reporter; higher = weaker reporter binding
- stated-conditions: Eterna round: R107; input ligand: FMN 200 uM
Items are presented alongside their recorded apparent KD of K4 kissing-loop reporter.
Kindly report the value followed by its unit.

Answered cases to consult:
residues	property	measured
GUUACGCAUGGAAGGAGCGCAGGCUCAACAAGUAGCUCAGUGAUGUUGAGCAUAUUAAUUCUGCAGGUAGGUCGCCAUGUGUAAC [Ex Arginine B K4 26]	apparent KD of K4 kissing-loop reporter	787 nM
AAAAUAAAUAGCAGUCACGGAGUGAUGUUCCGAGGACCGGUACGGCCGCCACUCGACCAGACAAAGUCUGGAUGGCGAGACUGCA [#SwitchBubble 19 #K4Early]	apparent KD of K4 kissing-loop reporter	200 nM
AUAUGCAGGAGAAGGAGCGUCGUUGCAAGUGAUGUUUGCAAGCGAGCUUACUAUAUACGACGACAGGUAGGUCGCUCCUGCGUAA [Arg B Ex t2]	apparent KD of K4 kissing-loop reporter	68.8 nM
AGUGUGCAAAAGCACACUCAGAACAAGGACAAGGAUAUCUACUAAUAGAGAAGGUGUCCUUUCCUUAGUGAUGUUAAGGAUCUGA [Omei KL FMN A SS D v4]	apparent KD of K4 kissing-loop reporter	270 nM
CGUUCCUCUGUCGAUACCAGCUUCAGUUGGCGGCCAGUGAUGUUGGUAUCGCCGAUGCCAAGCCCUUGGCAGCGACAUGAGAACC [Uslaessobi]	apparent KD of K4 kissing-loop reporter	200 nM
CGGUUAUAGCAGGAUACCAGUACCCAUUAUGUACGUUUAUAGUAGAGUGAUGUUCUAAAGUACCCUUGGCAGCUUCCCGUGACCC [#23 K4 Theophylline B Exclusion]	apparent KD of K4 kissing-loop reporter	150 nM

stdin: Provide the documented apparent KD of K4 kissing-loop reporter with K4 kissing-loop RNA reporter as the system for UGAUACCAGACGGCCGCCACUCCUGCAGUCAAAGACUGCUAAAGGAAAUUCGUCCAGUGAUGUUGGAGGACCGGGUCUGGUAUCU [TrypBX 13 #SwitchBubble #Palindromic #StaticStem]
stdout: 1100 nM

stdin: Provide the documented apparent KD of K4 kissing-loop reporter with K4 kissing-loop RNA reporter as the system for UUUGUAUAGGGAAGGAGCGUGAAUGAUAAUGAAUAUAGUGAUGUUAUAUAUAAGAAAGAAUCACAGGUAGGUCGCCCGGAUGAGG [SSArgB.K]
stdout: 557 nM

stdin: Provide the documented apparent KD of K4 kissing-loop reporter with K4 kissing-loop RNA reporter as the system for CGCGCGCGCCGCAAGGCGCGCGCGAACGAUACCAGUAUAUAAGAAUACCCUUGGCAGCGUAAGAAAGCUAUAGUGAUGUUGUAGA [#19 K4 Theophylline A Same State]
stdout: 254 nM

stdin: Provide the documented apparent KD of K4 kissing-loop reporter with K4 kissing-loop RNA reporter as the system for AUGUAUGAAUUAGGAUAUCGUGAUCCAUGCAUAUAUAUGAUAAAUGGAUAUGUCGUAGUGAUGUUACGAGAAGGAGUGUGGAGUA [KL-XFMN-B1]
stdout: 62.6 nM

stdin: Provide the documented apparent KD of K4 kissing-loop reporter with K4 kissing-loop RNA reporter as the system for UAAGAAUAACAUGCAGUGAUGUUGCAUGUACGAGGACCGGUACGGCCGCCACUCGAGUCCUCGAACAUGCACCGAGGAAUAACAA [(H,1)-(H,2)-(Trp1)-(Trp2)-(T)'-(H)'-(T)'']
stdout: 201 nM

----------
- Tested on: K4 kissing-loop RNA reporter;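 further: bound reporter read as fluorescence of individual clusters on recovered sequencing chips by microscopy, with normalized cluster intensities fitted with a binding model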
- run-description: apparent KD of K4 kissing-loop reporter; higher = weaker reporter binding
- stated-conditions: Eterna round: R107; input ligand: theophylline 20 uM
Items are presented alongside their recorded apparent KD of K4 kissing-loop reporter.

residues	apparent KD of K4 kissing-loop reporter
UCUCGGGCCAGUGAUGUUGGCGGCAAGUGGCGAGGACCGGUACGGCCGCCACUCGGCGCAGCAGCGGAGUGAUGUUUCGUGAGUA [Same State Tryptophan A GF 16]	387 nM

stdin: So what's the measured apparent KD of K4 kissing-loop reporter for this one? AAGCCAGUGAUGUUGGCAAAAUAAACUGAAGGAGCGCGUGAAAACGCAGGUAGGUCGCAGAACCUUGCCAACUAACACGAAAGUG [Ex Arginine A K4 19]
stdout: 387 nM

stdin: So what's the measured apparent KD of K4 kissing-loop reporter for this one? AUACCUCUACGAGUGAUGUUUGUUGAGGAUACCAGCAUGUAUAGUUGCCCUUGGCAGCCUUGGCUCGUGCGCUCCCUCCGAACCG [theeternabot_exclusion_KL_Theo_A_30]
stdout: 277 nM

stdin: So what's the measured apparent KD of K4 kissing-loop reporter for this one? AAUCAAUACAGAAGGAGCGUGACAUUUGCUAUUGUAAUUUUAGCUAGUGAUGUUAGCAUUUCACAGGUAGGUCGCUGUACAUUUA [JR_SSArginiB_Sub010]
stdout: 415 nM

stdin: So what's the measured apparent KD of K4 kissing-loop reporter for this one? AAAUAAAGCAGUCAGCCAGUGAUGUUGGAAGGAGCGUGCGAAAGCACAGGUAGGUCGCCAAAACCUAAUACUGGCUGCUAAAUAA [#SwitchBubble 1 #K4Early]
stdout: 753 nM

stdin: So what's the measured apparent KD of K4 kissing-loop reporter for this one? GGUGCUGUCUGUGCCGCCCUCCUCGUUCCUCGAGGACCGGUACGGCCGCCACUCGAGUGAUGUUCGGGUAGCGAUCCCUGCUAGC [Bdazzled - #17 Exc. Tryptophan A]
stdout: 191 nM

----------
Items are presented alongside their recorded apparent KD of MS2 coat protein.
- Test system: MS2 coat protein
- run-description: apparent KD of MS2 coat protein; higher = weaker reporter binding
- stated-conditions: Eterna round: R107; input ligand: tryptophan 2.4 mM
Reply with just the number (in nM).

residues	apparent KD of MS2 coat protein, nM
ACAUGAGGAUCACCCAUGUUCCUCUUUGAUACCAGUGAGUUGUUUCGCCCUUGGCAGCGAGUGUUUGUUUUUUUGUUUUGUUUGG [6.S]	229
GGACUAACCAGAAGGAGCGACACGCAGAAACUGCUAUUUCCUCCGCACGAGGAUCACCCGUGUCAGGUAGGUCGCUGGUUAGUCG [ArgBX 28]	21.4

stdin: Provide the documented apparent KD of MS2 coat protein with MS2 coat protein as the system for GGCAGUCAUAGCAGGGCAAAUAUACUCGAAGGAGCGUCAUAGUAGGCAGGUAGGUCGCGAGACAUGAGGAUCACCCAUGUAGAGA [uuumullin]
stdout: 49.3

stdin: Provide the documented apparent KD of MS2 coat protein with MS2 coat protein as the system for GGCACCAGGCGAAGGAGCGUGAAGACAUGAGGAUCACCCAUGUAGAGGCCCGGACAGGGUUCGCAGGUAGGUCGCGCCUGGUGCC [#1 Same State - Arginine B Attempt #9 (HarryS)]
stdout: 13.5

stdin: Provide the documented apparent KD of MS2 coat protein with MS2 coat protein as the system for CUCUGAGUGAUCGCUCACUCAGAGGCGGAUACCAGCGAGGUCCAUCGCCCUUGGCAGCCGAACAUGAGGAUCACCCAUGUCGGUA [#1 Same State - Theophylline A Attempt #20 (HarryS)]
stdout: 8.98

stdin: Provide the documented apparent KD of MS2 coat protein with MS2 coat protein as the system for AGCGAUAUGCAUGAUACCAGCUACAUGAGGAUCACCCAUGUGCGUCAGUAAUGACUGUGUAGCCCUUGGCAGCAUAGAGCAUGUA [Exclusion - Theophylline B (Freestyle 12)]
stdout: 34.7

stdin: Provide the documented apparent KD of MS2 coat protein with MS2 coat protein as the system for AACAUGAGGAUCACCCAUGUCCUCGUGAUUCGAGGACCGGUACGGCCGCCACUCGGUCCUCGCGAGGUGGAGUCAAAGACUCCAA [Omei Trp A SS A v3]
stdout: 327

stdin: Provide the documented apparent KD of MS2 coat protein with MS2 coat protein as the system for ACUCGGUGUUUGUUGCUCCGAGUUUAUGAUACCAGUUAGUUUUAUGGCCCUUGGCAGCAUAGGACAUGAGGAUCACCCAUGUGUU [#03 SameState-TheophyllineA]
stdout: 32.2

stdin: Provide the documented apparent KD of MS2 coat protein with MS2 coat protein as the system for AACAUACAUGAGGAUCACCCAUGUCACGAUACCAGAUACAUGAGGAUCCCUUGGCAGCGUCAUGAGGAUCACCCAUGUUGUACAU [Exclusion Theophylline A 2]
stdout: 17.7

stdin: Provide the documented apparent KD of MS2 coat protein with MS2 coat protein as the system for AGCACUGUGACGGCCGCCACUACAUAAAUUGGGUGGUCAGGUUCAUUACAUGAGGAUCACCCAUGUAGGACCGGGUCUCAGUGCA [Omei Trp Exc B A v8]
stdout: 7.33

stdin: Provide the documented apparent KD of MS2 coat protein with MS2 coat protein as the system for AUUAAUAGUUGUGAUACCAGACGAACAUGAGGAUCACCCAUGUAACUUUUAGGUGUUGUAGUCCCUUGGCAGCACUAUGUAGUUA [JR_SSTheophyB_Sub013]
stdout: 32.6

stdin: Provide the documented apparent KD of MS2 coat protein with MS2 coat protein as the system for AGAAGUCCAGACUACACGUGGAAAAGCGAUACCAGACUCAUAGGUGUCCCUUGGCAGCGCGUAACAUGAGGAUCACCCAUGUGAU [theeternabot_exclusion_MS2_Theo_A_9]
stdout: 133

stdin: Provide the documented apparent KD of MS2 coat protein with MS2 coat protein as the system for UACGCUAGGGCGGCCGCCACUCGGACAUGAGGAUCACCCAUGUCGAUUAAUUGAAGGACAUGAAUGAGGACCGGGCUAAGCUAGG [Same State - Tryptophan B / B]
stdout: 23.4
